Form field: relative potency for displacement of assay tracer (one value per entry).
Test system: EEP (R^2=Glu) antibody (580B6)
Settings: tracer 125I-TRH; assay standard = 1.00
Non-standard residues stand in square brackets, D forms with d. Residues, ends and D or L forms follow the SMILES beside them. pGlu = O=C1CC[C@@H](C(=O)O)N1
quantity_kind: relative potency for displacement of assay tracer

INSERT INTO measurements (compound, val) VALUES
  ('CC(C)C[C@H](NC(=O)[C@@H]1CCC(=O)N1)C(=O)N1CCC[C@H]1C(N)=O [R^2 = Leu, pGlu-Leu-Pro-NH2] ([pGlu]-Leu-Pro-NH2)', 5.00),
  ('NC(=O)[C@@H]1CCCN1C(=O)[C@H](CCC(=O)O)NC(=O)[C@@H]1CCC(=O)N1 [R^2 = Glu, pGlu-Glu-Pro-NH2] ([pGlu]-Glu-Pro-NH2)', 1.00),
  ('NC(=O)[C@@H]1CCCN1C(=O)[C@H](Cc1cnc[nH]1)NC(=O)[C@@H]1CCC(=O)N1 [TRH, pGlu-His-Pro-NH2, reference compound]', 2.91),
  ('NC(=O)[C@@H]1CCCN1C(=O)[C@H](Cc1ccc(O)cc1)NC(=O)[C@@H]1CCC(=O)N1 [R^2 = Tyr, pGlu-Tyr-Pro-NH2] ([pGlu]-Tyr-Pro-NH2)', 5.06),
  ('CC(C)[C@H](NC(=O)[C@@H]1CCC(=O)N1)C(=O)N1CCC[C@H]1C(N)=O [R^2 = Val, pGlu-Val-Pro-NH2] ([pGlu]-Val-Pro-NH2)', 9.24);

* * *

Tested on: 465B12 antibody (raised to TRH)
Settings: tracer 125I-TRH; assay standard = 1.00
Non-standard residues stand in square brackets, D forms with d. Residues, ends and D or L forms follow the SMILES beside them. pGlu = O=C1CC[C@@H](C(=O)O)N1
quantity_kind: relative potency for displacement of assay tracer

INSERT INTO measurements (molecule, val) VALUES
  ('NC(=O)[C@@H]1CCCN1C(=O)[C@H](Cc1ccc(O)cc1)NC(=O)[C@@H]1CCC(=O)N1 [R^2 = Tyr, pGlu-Tyr-Pro-NH2] ([pGlu]-Tyr-Pro-NH2)', 9.85),
  ('NC(=O)[C@@H]1CCCN1C(=O)[C@H](CCC(=O)O)NC(=O)[C@@H]1CCC(=O)N1 [R^2 = Glu, pGlu-Glu-Pro-NH2] ([pGlu]-Glu-Pro-NH2)', 0.02),
  ('CC(C)C[C@H](NC(=O)[C@@H]1CCC(=O)N1)C(=O)N1CCC[C@H]1C(N)=O [R^2 = Leu, pGlu-Leu-Pro-NH2] ([pGlu]-Leu-Pro-NH2)', 0.301),
  ('NC(=O)[C@@H]1CCCN1C(=O)[C@H](Cc1cnc[nH]1)NC(=O)[C@@H]1CCC(=O)N1 [TRH, pGlu-His-Pro-NH2, reference compound]', 1.00),
  ('CC(C)[C@H](NC(=O)[C@@H]1CCC(=O)N1)C(=O)N1CCC[C@H]1C(N)=O [R^2 = Val, pGlu-Val-Pro-NH2] ([pGlu]-Val-Pro-NH2)', 0.161);

* * *

Target sequence: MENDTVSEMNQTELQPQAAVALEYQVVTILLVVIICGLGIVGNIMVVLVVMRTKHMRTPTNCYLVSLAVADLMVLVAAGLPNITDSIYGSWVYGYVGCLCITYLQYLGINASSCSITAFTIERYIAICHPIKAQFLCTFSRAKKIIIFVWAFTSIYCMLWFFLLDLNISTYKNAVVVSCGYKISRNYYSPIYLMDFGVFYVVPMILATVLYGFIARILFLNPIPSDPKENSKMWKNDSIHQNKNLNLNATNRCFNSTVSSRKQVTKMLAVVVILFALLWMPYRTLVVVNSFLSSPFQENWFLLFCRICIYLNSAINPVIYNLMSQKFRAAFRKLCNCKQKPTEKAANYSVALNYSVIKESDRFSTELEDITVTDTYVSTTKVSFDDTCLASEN
pIC50: −log10 of the molar value. Non-standard residues stand in square brackets, D forms with d. Residues, ends and D or L forms follow the SMILES beside them. pGlu = O=C1CC[C@@H](C(=O)O)N1
Form field: pIC50 (one value per entry).
quantity_kind: pIC50

INSERT INTO results (compound, quantity_kind, relation_sign, val) VALUES
  ('N=C(N)NCCC[C@H](NC(=O)[C@@H]1CCC(=O)N1)C(=O)N1CCC[C@H]1C(N)=O [Arg, reference compound] ([pGlu]-Arg-Pro-NH2)', 'pIC50', '<', 3.58),
  ('C[C@@H](O)[C@H](NC(=O)[C@@H]1CCC(=O)N1)C(=O)N1CCC[C@H]1C(N)=O [Thr, reference compound] ([pGlu]-Thr-Pro-NH2)', 'pIC50', '<', 3.51),
  ('CC(C)C[C@H](NC(=O)[C@@H]1CCC(=O)N1)C(=O)N1CCC[C@H]1C(N)=O [R^2 = Leu, pGlu-Leu-Pro-NH2] ([pGlu]-Leu-Pro-NH2)', 'pIC50', '=', 5.26),
  ('CC(C)[C@H](NC(=O)[C@@H]1CCC(=O)N1)C(=O)N1CCC[C@H]1C(N)=O [R^2 = Val, pGlu-Val-Pro-NH2] ([pGlu]-Val-Pro-NH2)', 'pIC50', '<', 3.51),
  ('NC(=O)CC[C@H](NC(=O)[C@@H]1CCC(=O)N1)C(=O)N1CCC[C@H]1C(N)=O [R^2 = Gln, reference compound] ([pGlu]-Gln-Pro-NH2)', 'pIC50', '=', 4.56),
  ('NC(=O)[C@@H]1CCCN1C(=O)[C@H](CO)NC(=O)[C@@H]1CCC(=O)N1 [Ser, reference compound] ([pGlu]-Ser-Pro-NH2)', 'pIC50', '=', 4.16);

* * *

Biological target: TRH receptor-2 (TRHR-2) (Rattus norvegicus)
Sequence (A6IZR3 1-352): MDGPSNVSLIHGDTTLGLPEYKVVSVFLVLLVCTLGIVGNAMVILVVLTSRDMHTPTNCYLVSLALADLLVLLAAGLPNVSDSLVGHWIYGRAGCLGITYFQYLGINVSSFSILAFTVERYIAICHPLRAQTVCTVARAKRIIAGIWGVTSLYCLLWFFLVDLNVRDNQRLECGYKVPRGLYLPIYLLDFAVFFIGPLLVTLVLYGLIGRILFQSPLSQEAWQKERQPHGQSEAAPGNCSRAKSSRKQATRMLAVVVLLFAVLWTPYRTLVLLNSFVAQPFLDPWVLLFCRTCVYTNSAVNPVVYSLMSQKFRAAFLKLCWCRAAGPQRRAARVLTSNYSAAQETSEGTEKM
Test: [3H]TRH competition binding, HEK293 cells expressing TRHR-2
Non-standard residues stand in square brackets, D forms with d. Residues, ends and D or L forms follow the SMILES beside them. pGlu = O=C1CC[C@@H](C(=O)O)N1
Form field: log10 of IC50 (one value per entry).
quantity_kind: log10 of IC50 (log10 of the value in µM)

INSERT INTO assay_data (compound, quantity_kind, val) VALUES
  ('CC(C)C[C@H](NC(=O)[C@@H]1CCC(=O)N1)C(=O)N1CCC[C@H]1C(N)=O [R^2 = Leu, pGlu-Leu-Pro-NH2] ([pGlu]-Leu-Pro-NH2)', 'log10 of IC50', 0.29),
  ('NC(=O)CC[C@H](NC(=O)[C@@H]1CCC(=O)N1)C(=O)N1CCC[C@H]1C(N)=O [R^2 = Gln, reference compound] ([pGlu]-Gln-Pro-NH2)', 'log10 of IC50', 1.33),
  ('NC(=O)[C@@H]1CCCN1C(=O)[C@H](Cc1ccccc1)NC(=O)[C@@H]1CCC(=O)N1 [R^2 = Phe, pGlu-Phe-Pro-NH2] ([pGlu]-Phe-Pro-NH2)', 'log10 of IC50', 0.53),
  ('NC(=O)[C@@H]1CCCN1C(=O)[C@H](Cc1cnc[nH]1)NC(=O)[C@@H]1CCC(=O)N1 [TRH, pGlu-His-Pro-NH2, reference compound]', 'log10 of IC50', -1.61),
  ('NC(=O)[C@@H]1CCCN1C(=O)[C@H](CO)NC(=O)[C@@H]1CCC(=O)N1 [Ser, reference compound] ([pGlu]-Ser-Pro-NH2)', 'log10 of IC50', 1.60);

* * *

Tested on: CR-V3-B53 antibody (raised to TRH)
Conditions: tracer 125I-TRH; assay standard = 1.00
Non-standard residues stand in square brackets, D forms with d. Residues, ends and D or L forms follow the SMILES beside them. pGlu = O=C1CC[C@@H](C(=O)O)N1
Decide using relative potency for displacement of assay tracer alone. Strictly below 0.09: met. Equal to or above 0.09: not met.

INSERT INTO results (molecule, class_assignment) VALUES
  ('NC(=O)[C@@H]1CCCN1C(=O)[C@H](CCC(=O)O)NC(=O)[C@@H]1CCC(=O)N1 [R^2 = Glu, pGlu-Glu-Pro-NH2] ([pGlu]-Glu-Pro-NH2)', 'met'),
  ('NC(=O)[C@@H]1CCCN1C(=O)[C@H](Cc1ccc(O)cc1)NC(=O)[C@@H]1CCC(=O)N1 [R^2 = Tyr, pGlu-Tyr-Pro-NH2] ([pGlu]-Tyr-Pro-NH2)', 'not met'),
  ('NC(=O)[C@@H]1CCCN1C(=O)[C@H](Cc1cnc[nH]1)NC(=O)[C@@H]1CCC(=O)N1 [TRH, pGlu-His-Pro-NH2, reference compound]', 'not met'),
  ('CC(C)[C@H](NC(=O)[C@@H]1CCC(=O)N1)C(=O)N1CCC[C@H]1C(N)=O [R^2 = Val, pGlu-Val-Pro-NH2] ([pGlu]-Val-Pro-NH2)', 'met');
